The following binders are shown together with reported absorbance at 450 nm values.
Molecular target: T1, fragment DIR-II (last 27 amino acids of the sequence encoded by the retained intron of DIR) (human)
T1 construct: also called target fragment DIR-II
T1 peptide: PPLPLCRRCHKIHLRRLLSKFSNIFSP
Experiment: ELISA, DIR-II coated; mAb (1 mg/mL) diluted 1:54k

Data point: DIR antibody IR-II-10 (A2D10) (antibody, V domains shown, Monoclonal antibody) VH: EVQLQQSGPELVKPGASVKISCKTSGYTFTEYTMHWVKQSHGKSLEWIGGIYPHNGGTNYNQKFKGKATLTVDKSSSTAYMELRSLTSEDSAVYYCTEDLTFDYWGQGTTLTVSS VL: DIQMTQTTSSLSASLGDRVTISCSASQDISNYLNWYQQKPDGTVKLLIYYTSSLHSGVPSRFSGSGSGTDYSLTISNLEPEDIATYHCLQYSKLPFTFGSGTKLEIK ; absorbance at 450 nm = 0.0783 absorbance (450 nm)

Data point: DIR antibody IR-II-7 (antibody, V domains shown, Monoclonal antibody) VH: QVQLQQSGAELMKPGASVKISCKATGYTFSNYWIEWIKQRPGHGLEWIGEILPGSYYSTNYNEKFKDKATFTADTSSNTAYIQLSSLTSEDSAVYYCARSGIITTRGDYFAMDYWGQGTSVTVSS VL: DIVLTQSPASLAVSLGQRATISCKASQSVDYDGDSYMNWYQQKPGQPPKLLMYAASNLESGIPARFSGSGSGTDFTLNIHPVEEEDAATYYCQQSNEDPRTFGGGTKLEIK ; absorbance at 450 nm = 0.35 absorbance (450 nm)
